Numbers sourced from patent US20210277140A1.

target_system: SNAP-Syk tSH2 (mouse, UniProt P48025 1-262)
protocol_description: liposome-based fluorescence quenching (FRET) assay; His10-FcRγ on NiNTA liposomes phosphorylated by Lck, 100 nM SNAP-505 Syk tSH2, receptor titrated 0-500 nM; apparent Kd, one site specific binding fit
No end group written: not given here.
value_type: Kd

binder His10-FcRγ (other, human, not fully specified, range 45-85; titrated 0 to 500 nM; also called His10-FcRγ intracellular chain; His10-FcRγ-chain) HHHHHHHHHHRLKIQVRKAAITSYEKSDGVYTGLSTRNQETYETLKHEKPP , Kd observed: ~30 nM
